pKi: −log10 of the molar value.
Entries with reported pKi on Mu-type opioid receptor (Homo sapiens)
Sequence (P35372 whole entry): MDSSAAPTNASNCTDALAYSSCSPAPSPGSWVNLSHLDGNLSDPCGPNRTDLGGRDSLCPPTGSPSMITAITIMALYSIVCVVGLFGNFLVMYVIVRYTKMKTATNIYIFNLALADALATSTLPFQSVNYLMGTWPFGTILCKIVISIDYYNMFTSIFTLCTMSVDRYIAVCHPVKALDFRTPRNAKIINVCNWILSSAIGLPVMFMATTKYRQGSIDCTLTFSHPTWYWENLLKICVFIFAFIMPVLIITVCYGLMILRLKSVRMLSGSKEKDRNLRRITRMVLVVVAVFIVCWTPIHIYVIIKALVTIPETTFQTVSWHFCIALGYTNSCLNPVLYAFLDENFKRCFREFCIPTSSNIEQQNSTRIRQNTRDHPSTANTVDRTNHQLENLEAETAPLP

Before answering, review these 2 worked examples.
1. COC(=O)[C@@H]1C[C@H](OC(=O)/C=C\C(=O)O)C(=O)[C@H]2[C@@]1(C)CC[C@H]1C(=O)O[C@H](c3ccoc3)C[C@]21C	< 5.00
2. COC(=O)[C@@H]1C[C@H](OC(=O)CC(=O)OC(C)(C)C)C(=O)[C@H]2[C@@]1(C)CC[C@H]1C(=O)O[C@H](c3ccoc3)C[C@]21C	< 5.00

// below: pKi requested for another compound
Observed pKi on Mu-type opioid receptor (Homo sapiens) for COC(=O)/C=C/C(=O)O[C@H]1C[C@@H](C(=O)OC)[C@]2(C)CC[C@H]3C(=O)O[C@H](c4ccoc4)C[C@]3(C)[C@H]2C1=O , please.
6.15

###

Ki listing for selected compounds.
TGT: Kappa-type opioid receptor (Homo sapiens, UniProt P41145)
Sequence (P41145 whole entry): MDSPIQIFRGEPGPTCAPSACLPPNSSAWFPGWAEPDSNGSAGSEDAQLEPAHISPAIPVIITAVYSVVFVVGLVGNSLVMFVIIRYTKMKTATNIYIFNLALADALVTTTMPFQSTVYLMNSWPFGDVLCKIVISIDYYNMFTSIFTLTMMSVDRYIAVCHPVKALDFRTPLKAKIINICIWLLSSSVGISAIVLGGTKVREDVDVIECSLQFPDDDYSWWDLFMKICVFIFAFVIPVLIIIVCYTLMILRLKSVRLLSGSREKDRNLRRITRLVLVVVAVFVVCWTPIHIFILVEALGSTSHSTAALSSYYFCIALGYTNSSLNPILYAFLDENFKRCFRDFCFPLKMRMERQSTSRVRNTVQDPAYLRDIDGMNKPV
Answer in nM, number only, no unit symbol.

Before answering, review these 5 worked examples.
1. COC(=O)CCCC(=O)O[C@H]1C[C@@H](C(=O)OC)[C@]2(C)CC[C@H]3C(=O)O[C@H](c4ccoc4)C[C@]3(C)[C@H]2C1=O	302
2. COC(=O)[C@@H]1C[C@H](OC(=O)c2ccccc2C(=O)O)C(=O)[C@H]2[C@@]1(C)CC[C@H]1C(=O)O[C@H](c3ccoc3)C[C@]21C	2290
3. COC(=O)[C@@H]1C[C@H](OC(=O)CC(=O)OC(C)(C)C)C(=O)[C@H]2[C@@]1(C)CC[C@H]1C(=O)O[C@H](c3ccoc3)C[C@]21C	148
4. COC(=O)CC(=O)O[C@H]1C[C@@H](C(=O)OC)[C@]2(C)CC[C@H]3C(=O)O[C@H](c4ccoc4)C[C@]3(C)[C@H]2C1=O	2
5. COC(=O)[C@@H]1C[C@H](OC(=O)CCC(=O)O)C(=O)[C@H]2[C@@]1(C)CC[C@H]1C(=O)O[C@H](c3ccoc3)C[C@]21C	4070

Given CCOC(=O)CCC(=O)O[C@H]1C[C@@H](C(=O)OC)[C@]2(C)CC[C@H]3C(=O)O[C@H](c4ccoc4)C[C@]3(C)[C@H]2C1=O , state its recorded Ki.
437

###

TGT: UniProt P35372
READOUT_KIND: Ki

Before answering, review these 2 worked examples.
1. COC(=O)[C@@H]1C[C@H](OC(=O)c2ccccc2C(=O)O)C(=O)[C@H]2[C@@]1(C)CC[C@H]1C(=O)O[C@H](c3ccoc3)C[C@]21C	> 10 µM
2. COC(=O)[C@@H]1C[C@H](O)C(=O)[C@H]2[C@@]1(C)CC[C@H]1C(=O)O[C@H](c3ccoc3)C[C@]21C	> 10 µM

// below: Ki requested for another compound
Observed Ki on UniProt P35372 for COC(=O)[C@@H]1C[C@H](OC(=O)CCCC(=O)O)C(=O)[C@H]2[C@@]1(C)CC[C@H]1C(=O)O[C@H](c3ccoc3)C[C@]21C , please.
4.57 µM

###

TGT: Delta-type opioid receptor (Homo sapiens)
Sequence (P41143 whole entry): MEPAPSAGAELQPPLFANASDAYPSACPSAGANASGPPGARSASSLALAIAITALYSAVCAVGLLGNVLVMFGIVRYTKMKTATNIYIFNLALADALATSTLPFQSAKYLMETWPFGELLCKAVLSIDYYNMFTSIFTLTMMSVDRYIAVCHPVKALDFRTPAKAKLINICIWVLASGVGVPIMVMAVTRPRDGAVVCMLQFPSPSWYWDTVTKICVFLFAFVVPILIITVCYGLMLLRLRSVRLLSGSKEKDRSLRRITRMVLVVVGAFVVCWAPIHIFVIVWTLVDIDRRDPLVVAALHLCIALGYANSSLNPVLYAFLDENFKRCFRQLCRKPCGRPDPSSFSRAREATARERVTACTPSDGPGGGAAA
METHOD_SUMMARY: Displacement of [3H]DADLE from delta opioid receptor (unknown origin)
Ki listing for selected molecules.

Observed Ki on Delta-type opioid receptor (Homo sapiens) for COC(=O)[C@@H]1C[C@H](OC(=O)/C=C\C(=O)O)C(=O)[C@H]2[C@@]1(C)CC[C@H]1C(=O)O[C@H](c3ccoc3)C[C@]21C , please.
> 10 µM

Taken from ChEMBL document CHEMBL2380279.
